Just for reference, ChEMBL document CHEMBL3997833 is where these values come from.

System: GST (glutathione S-transferase)
Test: Inhibition of Schistosoma japonicum C-terminal His6-tagged GST expressed in Escherichia coli BL21(DE3) assessed as reduction in GSH transfer activity by measuring residual activity at 10 mM using GSH/CDNB co-substrate mixture preincubated for 10 mins followed by substrate addition by colorimetric method relative to control
Conditions: probe GSH/CDNB co-substrate mixture, read-out: Activity
readoutName: activity at 10000 µM (%)

[[record]]
compoundsmiles = "Nc1ccc(C(=O)O)cc1"
resultnumber = 33


* * *

System: GST (glutathione S-transferase)
Experiment: Inhibition of Schistosoma japonicum C-terminal His6-tagged GST expressed in Escherichia coli BL21(DE3) assessed as reduction in GSH transfer activity by measuring residual activity at 150 uM using GSH/CDNB co-substrate mixture preincubated for 10 mins followed by substrate addition by colorimetric method relative to control
Conditions: probe GSH/CDNB co-substrate mixture, read-out: Activity
readoutName: activity at 150 µM (%)

[[record]]
compoundsmiles = "N[C@@](CF)(Cc1cnc[nH]1)C(=O)O"
targetsystem = "GST (glutathione S-transferase)"
measureunit = "%"
resultnumber = 57

